tested on: LOC_OS06G16330-cb003; experiment: thermal shift delta Tm vs DMSO control; higher = stronger stabilization (binding); conditions: 12.5 µM; protein concentration 2 µM;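 note: purified Escherichia coli-expressed rice kinase domain construct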
Sequence (as listed by the source): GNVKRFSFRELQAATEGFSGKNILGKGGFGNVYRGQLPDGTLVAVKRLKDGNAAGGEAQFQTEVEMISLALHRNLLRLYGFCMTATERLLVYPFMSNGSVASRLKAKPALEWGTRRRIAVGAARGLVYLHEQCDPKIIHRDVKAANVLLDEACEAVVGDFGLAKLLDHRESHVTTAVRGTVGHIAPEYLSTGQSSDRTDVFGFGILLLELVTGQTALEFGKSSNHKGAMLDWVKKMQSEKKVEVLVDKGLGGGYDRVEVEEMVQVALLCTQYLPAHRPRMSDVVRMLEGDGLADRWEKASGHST
Counter-ions that a name gives are not always drawn.
# thermal shift delta Tm per record follows
Numeric only. Scale: °C

Below are worked cases with known answers.
1) N#Cc1ccc(-c2c(-c3ncn[nH]3)sc(N3CCOCC3)c2C#N)c(F)c1 : -0.08
2) COc1cc(N2CCC(N)CC2)ccc1Nc1ncc(Cl)c(-c2c[nH]c3ccccc23)n1 : 10.4
3) CC[C@@H]1C(=O)N(C)c2cnc(Nc3ccc(C(=O)NC4CCN(C)CC4)cc3OC)nc2N1C1CCCC1 : 0.39
4) CO[C@H]1C[C@@H]2CC[C@@H](C)[C@@](O)(O2)C(=O)C(=O)N2CCCC[C@H]2C(=O)O[C@H]([C@H](C)C[C@@H]2CC[C@@H](OC(=O)C(C)(CO)CO)[C@H](OC)C2)CC(=O)[C@H](C)/C=C(\C)[C@@H](O)[C@@H](OC)C(=O)[C@H](C)C[C@H](C)/C=C/C=C/C=C/1C : -0.27

Query O=C1NC(=O)/C(=C/c2cccc(C(F)(F)F)c2)S1 on LOC_OS06G16330-cb003; thermal shift delta Tm returned: 0.26

Query CN1CCC(COc2cnc(-c3cccc(Cn4nc(-c5cccc(C#N)c5)ccc4=O)c3)nc2)CC1 on LOC_OS06G16330-cb003; thermal shift delta Tm returned: 0.55

Query O=c1cc(N2CCOCC2)oc2c(-c3ccc4c(c3)OCCO4)csc12 on LOC_OS06G16330-cb003; thermal shift delta Tm returned: 0.18

Query COc1cc(N2CCC(N(C)C)CC2)ccc1Nc1ncc(Cl)c(Nc2ccccc2P(C)(C)=O)n1 on LOC_OS06G16330-cb003; thermal shift delta Tm returned: 8.95

Query NC[C@@](O)(c1ccc(Cl)cc1)c1ccc(-c2cn[nH]c2)cc1 on LOC_OS06G16330-cb003; thermal shift delta Tm returned: 0.77

Query CC(C)c1c2cc(-c3ccnc(NC4CCC(NC5CCOCC5)CC4)n3)ccc2nn1C (configuration not stated) on LOC_OS06G16330-cb003; thermal shift delta Tm returned: 3.01

Query Cn1cc(-c2ccc3nnc(C(F)(F)c4ccc5ncccc5c4)n3n2)cn1 on LOC_OS06G16330-cb003; thermal shift delta Tm returned: 1.54

Query COc1cc2nccc(Oc3ccc(NC(=O)Nc4cc(C)on4)c(Cl)c3)c2cc1OC on LOC_OS06G16330-cb003; thermal shift delta Tm returned: 10.8

Query O=C(Nc1cccc(Cl)c1)Nc1ncc(CCNc2ncnc3ccsc23)s1 [SNS-314 Mesylate] on LOC_OS06G16330-cb003; thermal shift delta Tm returned: 4.68

Query COc1ccc2c(Oc3ccc(NC(=O)c4c(C)n(CC(C)(C)O)n(-c5ccccc5)c4=O)nc3)ccnc2c1 on LOC_OS06G16330-cb003; thermal shift delta Tm returned: 5.11

Query C[C@H]1CNCCCN1S(=O)(=O)c1cccc2cncc(F)c12 [Ripasudil (K-115) hydrochloride dihydrate] on LOC_OS06G16330-cb003; thermal shift delta Tm returned: 0.41

Query Cc1c(C(=O)N2CCOc3ccc(-c4ccc(N)nc4)cc3C2)ccc(S(C)(=O)=O)c1F on LOC_OS06G16330-cb003; thermal shift delta Tm returned: 1.82

Query Cc1ccc(NC(=O)c2cccc(N(C)C)c2)cc1NC(=O)c1ccc(O)cc1 on LOC_OS06G16330-cb003; thermal shift delta Tm returned: 0.4
